Exercise: state measured GI50 for each of the molecules provided.
Test system: HCC 2998
Experiment: NCI tumour cell line growth inhibition, 48 h
The source made the active and inactive calls. Cut-off read from the data, not from the text of the source: active = GI50 up to about 1.1 µM and inactive = higher.

Worked examples, 5 molecules total:
Nc1n2nc(-c3ccccc3)sc2n[n+]1CC(=O)c1ccccc1 :: 12.5 µM (inactive)
COc1ccc2c(c1)CCN1C3=C(CCC3)C(=O)C[C@@H]21 :: > 100 µM (inactive)
CC1=NN(c2nc(N)nc(CSc3cc(Cl)c(C)cc3S(N)(=O)=O)n2)C(C)(C)C1 :: > 10 µM (inactive)
O=C(CCCN1CCC2(CC1)CC(=O)N(N1CCOCC1)C2=O)c1ccccc1 :: > 100 µM (inactive)
CC(C)N1CN(c2ccccc2)C2(CCN(CCCC(=O)c3ccc(F)cc3)CC2)C1=O :: 7.14 µM (inactive)

Below are 7 molecules. Give each one its GI50.
1. Cn1ccc2c(c1=O)C(=O)OC2(C)C
2. CCN(CC)CCn1ncc2ccc3c(c(=O)c4cccnc4n3CCN(CC)CC)c21
3. C=CC(=O)Nc1ccc(NC(=O)C=C)c2c1C(=O)c1ccccc1C2=O
4. CCCCCCCCCCCCCCCCc1c(C(=O)OC)[nH]c(=S)[nH]c1=O
5. Cc1[nH]c(=O)nc(S)c1C(=O)NC1C2CCCCC2NC2CCCCC21 (configuration not stated)
6. COc1ccc(-n2nnc3c(C#N)c(-c4ccccc4)c(C)n3c2=O)cc1
7. O=C(Nc1ccn(C2CC(I)C(COC(c3ccccc3)(c3ccccc3)c3ccccc3)O2)c(=O)n1)c1ccccc1 (configuration not stated)

result:
1: > 100 µM (inactive); 2: 0.75 µM (active); 3: > 100 µM (inactive); 4: > 50 µM (inactive); 5: 25 µM (inactive); 6: 72.6 µM (inactive); 7: 12.6 µM (inactive)

Below are 2 molecules. Give each one its GI50.
1. O=C1N[C@@H]([C@H]2CC[C@H](Cl)CN2)C(=O)N[C@H]1[C@H]1CC[C@H](Cl)CN1
2. COc1ccc(C2c3cc4c(cc3C(O)C3CCC(=O)N23)OCO4)cc1 (configuration not stated)

result:
1. 0.923 µM (active)
2. > 100 µM (inactive)

Below are 6 molecules. Give each one its GI50.
1. CN1C(c2ccccc2)CC(=O)C(N)C1c1ccccc1 (configuration not stated)
2. OB(O)c1ccccc1C#Cc1ccccc1B(O)O
3. Cc1c(Cc2ccccc2)c(Cc2ccccc2)c(C)[s+]1[O-]
4. CNc1ncnc2c1ncn2C1C=CC(COS(N)(=O)=O)C1 (configuration not stated)
5. CCOC(=O)CNc1nc(=O)c2c(=O)oc(Cl)cc2o1
6. N#Cc1c(N)c2c(c(-c3ccccc3)c1-c1ccccc1)C(=O)N(N)C2=O

result:
["20.8 µM (inactive)", "17.7 µM (inactive)", "19.6 µM (inactive)", "> 100 µM (inactive)", "15.6 µM (inactive)", "> 100 µM (inactive)"]

Below are 3 molecules. Give each one its GI50.
1. CC1C2(C)OC(=N)C(C#N)(C(C)O2)C1(C#N)C#N (configuration not stated)
2. C=CC1(c2ccc(Cl)c(Cl)c2)OCCO1
3. O=C1C=C(Nc2ccccc2C(=O)CC(=O)C(=O)Nc2ccc(Cl)cc2)c2ccccc2C1=O

result:
1: 20.4 µM (inactive); 2: > 100 µM (inactive); 3: 17.5 µM (inactive)

---

System: LOX IMVI
Experiment: NCI tumour cell line growth inhibition, 48 h
The source made the active and inactive calls. Rule as the data show it: active = GI50 up to about 1.1 µM and inactive = higher.
readout name: GI50

COC1CC2C=CC3C4OC2(/C(C)=C/C(C)C(C(C)O)OC1=O)C3C(O)C(C)C4OC(=O)c1ccc[nH]1 (configuration not stated) :: 64 µM (inactive)
COC(=O)/C=C/c1ccc2c(c1)CC1(C2)Cc2cc3c(cc2C1=O)CCC3 (configuration not stated) :: > 100 µM (inactive)
COc1ccc2c(c1)C/C(=C\c1cccc3ccccc13)C2=O :: 5.07 µM (inactive)
CN(c1c(Cl)cccc1Cl)S(=O)(=O)c1ccccc1[N+](=O)[O-] :: > 100 µM (inactive)
O=C(CNC(=O)OCc1ccccc1)NCCCCC(NC(=O)OCc1ccccc1)C(=O)O (configuration not stated) :: > 100 µM (inactive)
[N-]=[N+]=NC(CCl)c1cn([C@H]2C[C@H](O)[C@@H](CO)O2)c(=O)[nH]c1=O (some centres not stated) :: > 100 µM (inactive)
CC(C)C1NC(=O)[C@H](C)OC(=O)[C@@H](C(C)C)NC(=O)[C@@H](C)OC(=O)C(C(C)C)NC(=O)[C@H](C)OC1=O (some centres not stated) :: > 49.3 µM (inactive)
O=c1[nH]nc(-c2ccccc2)n1/N=C\CC/C=N\n1c(-c2ccccc2)n[nH]c1=O :: 12.9 µM (inactive)

Below are 2 molecules. Give each one its GI50.
1. CCOc1cc(NC(C)=O)ccc1C(=O)NNC(=O)c1ccccc1OC(C)=O
2. CCOC(=O)NC(=O)c1cn(CCNCCO)c(=O)[nH]c1=O

result:
["5.45 µM (inactive)", "> 100 µM (inactive)"]

Below are 4 molecules. Give each one its GI50.
1. Nc1ncnc2c1ncn2C1CCC(CP(=O)(O)O)C1 (configuration not stated)
2. COC(=O)C1=CC2CCCC1(O)C(C(C)=O)C2 (configuration not stated)
3. O=C(O)CCSC(=O)Nc1cccc([N+](=O)[O-])c1
4. O=C(O)CCCc1ccc(N(CCCl)CCCl)cc1 [CHLORAMBUCIL]

result:
1. > 100 µM (inactive)
2. 16.6 µM (inactive)
3. 66.7 µM (inactive)
4. 40.3 µM (inactive)

Below are 8 molecules. Give each one its GI50.
1. CNc1ncnc2c1ncn2C1C=CC(COS(N)(=O)=O)C1 (configuration not stated)
2. [N-]=[N+]=CC(=O)CCC(=O)N(c1ccccc1)c1ccccc1
3. CC(=O)OC1=C(c2ccccc2)S(=O)(=O)c2ccccc21
4. COC(=O)c1csnn1
5. N=C(N)Nc1ccc(CC(N)NCC(=O)O)cc1 (configuration not stated)
6. CSC1=NC=CCN1C
7. C[C@H](CCC(=O)NCCS(=O)(=O)O)[C@H]1CC[C@H]2[C@@H]3[C@H](O)C[C@@H]4C[C@H](O)CC[C@]4(C)[C@H]3CC[C@]12C
8. C1=C2C3=[N+](CCCC3)CC2Cc2sccc21 (configuration not stated)

result:
1. > 100 µM (inactive)
2. > 10 µM (inactive)
3. > 100 µM (inactive)
4. > 100 µM (inactive)
5. > 25 µM (inactive)
6. > 100 µM (inactive)
7. > 100 µM (inactive)
8. > 100 µM (inactive)

Below are 3 molecules. Give each one its GI50.
1. O=S(=O)(O)c1cccc2c(/N=N/c3c(O)ccc4ccccc34)cccc12
2. COC(=O)CC(c1ccccc1)C(C#N)(OP1(=O)OC(c2ccccc2)C(C)N1C)c1ccccc1 (configuration not stated)
3. COC(=O)[C@H](C)NC(=O)[C@H](CSC)N1C(=O)N[C@@H](C(C)C)C1=O

result:
> 100 µM (inactive)
59.3 µM (inactive)
> 100 µM (inactive)

---

System: SK-MEL-28
Assay: NCI tumour cell line growth inhibition, 48 h
Where a name gives a salt, the structure may show the parent alone. Activity calls are given as the source filed them. Cut-off read from the data, not from the text of the source: active = GI50 up to about 1.1 µM and inactive = higher.
Exercise: state measured GI50 for each of the compounds provided.

Below are 5 compounds. Give each one its GI50.
1. CCOC(OC(C)=O)[C@@H]1C=C[C@H](C)N(c2ccc([N+](=O)[O-])cc2)O1 (stereo not given in full)
2. COc1cc(C(C#N)NNc2nc(C)cc(O)n2)cc(OC)c1OC (stereo not given)
3. CC(Cc1ccccc1)N(C)Cc1nc(C2CCC([N+](=O)[O-])O2)no1 (stereo not given)
4. Oc1ccc2c3c1OC1c4[nH]ncc4C[C@H]4[C@@H](C2)N(CC2CC2)CC[C@]314 (stereo not given in full)
5. CCN1CCCC(Nc2cc(C)nc(NC(=N)Nc3ccc(Cl)c(Cl)c3)n2)C1 (stereo not given)

result:
1. 3.01 µM (inactive)
2. > 100 µM (inactive)
3. 11.9 µM (inactive)
4. > 100 µM (inactive)
5. 1.77 µM (inactive)

Below are 3 compounds. Give each one its GI50.
1. COc1nc(N)nc2c1ncn2C1CC(O)C(CO)O1 (stereo not given)
2. Cc1nc2c(o1)/C(=N\c1ccccc1)c1nc(C)oc1/C2=N/c1ccccc1
3. CN(C)CC1CCCC/C1=N/OC(=O)c1ccc(Cl)c(Cl)c1 (stereo not given)

result:
1: > 100 µM (inactive); 2: 23.9 µM (inactive); 3: > 100 µM (inactive)

Below are 2 compounds. Give each one its GI50.
1. CN[C@@H](C)[C@@H](O)c1ccccc1 [PSEUDOEPHEDRINE HYDROCHLORIDE]
2. O=C1Nc2ccccc2C1Cc1ccccc1 (stereo not given)

result:
["> 100 µM (inactive)", "> 100 µM (inactive)"]

Below are 8 compounds. Give each one its GI50.
1. CC1=NC(C(C)C)C(=O)O1 (stereo not given)
2. C[C@]12C[C@H](O)[C@H]3[C@@H](CCC4=CC(=O)CC[C@@]43C)[C@@H]1CC[C@@H]2c1csc(-c2ccccc2)n1
3. Oc1nnnc2c1sc1ncccc12
4. O=C1O/C(=C\c2ccccc2)N(c2ccccc2)C1=O
5. CSC1CC2C(CC1(C)SC)C2(C)C (stereo not given)
6. CO[C@]12CCC(=O)N1C=Cc1c2[nH]c2ccccc12
7. CCc1cccc(C)c1NS(=O)(=O)c1ccccc1
8. CCOc1cc(NC(C)=O)ccc1C(=O)NNC(=O)c1ccccc1OC(C)=O

result:
1: > 100 µM (inactive); 2: > 100 µM (inactive); 3: > 100 µM (inactive); 4: > 100 µM (inactive); 5: > 100 µM (inactive); 6: > 100 µM (inactive); 7: > 100 µM (inactive); 8: 21.5 µM (inactive)
